- Test system: dorsal horn neurons
- assay-method-text: whole-cell recording of dorsal horn neurons in spinal cord slices from Chung models (Example 4)
- Format: cell-based, rat
- condition-details: 1 μM; rest = 100
Positions of bridges follow the written chain, without caps; N, C: chain ends. No end group written: not given here.
Record form. Attribute: Normalised Membrane Potential. Fill in for each entry.
One number for each entry.

sequence-data	numeric-readout
SCRARPVESSC (listed as Homo sapiens) [LAT9993 SLoop A4, peptide variant of formula (I)]	107.7
CRSRPVESSCS (disulfide 1-10 (inferred); listed as Homo sapiens) [LAT9993 LoopS, cyclic peptide of formula (I), disulphide bond between the two cysteine residues]	91.5
SCRSRPVESAC (listed as Homo sapiens) [LAT9993 SLoop A10, peptide variant of formula (I)]	101.2
SCRSRPAESSC (listed as Homo sapiens) [LAT9993 SLoop A7, peptide variant of formula (I)]	95.3

Provide Normalised Membrane Potential values for the following items, in order.
1. SCRSRPVEASC (listed as Homo sapiens) [LAT9993 SLoop A9, peptide variant of formula (I)]
2. IDPSSEAPGHSCRSRPVESSC (listed as Homo sapiens) [SEQ11+LAT9993 Loop, peptide variant of formula (I)]
3. CRSRPVESSCSSKFSWDEYEQYKKE (listed as Homo sapiens) [SEQ25+LAT9993 Loop, peptide variant of formula (I)]

[76.9, 101.4, 93.7]
